Exercise: for every item that follows, state its recorded inhibition at 3 µM.
Target entity: hSERT (Homo sapiens)
Construct: expressed in transfected cells
Sequence (P31645 whole entry): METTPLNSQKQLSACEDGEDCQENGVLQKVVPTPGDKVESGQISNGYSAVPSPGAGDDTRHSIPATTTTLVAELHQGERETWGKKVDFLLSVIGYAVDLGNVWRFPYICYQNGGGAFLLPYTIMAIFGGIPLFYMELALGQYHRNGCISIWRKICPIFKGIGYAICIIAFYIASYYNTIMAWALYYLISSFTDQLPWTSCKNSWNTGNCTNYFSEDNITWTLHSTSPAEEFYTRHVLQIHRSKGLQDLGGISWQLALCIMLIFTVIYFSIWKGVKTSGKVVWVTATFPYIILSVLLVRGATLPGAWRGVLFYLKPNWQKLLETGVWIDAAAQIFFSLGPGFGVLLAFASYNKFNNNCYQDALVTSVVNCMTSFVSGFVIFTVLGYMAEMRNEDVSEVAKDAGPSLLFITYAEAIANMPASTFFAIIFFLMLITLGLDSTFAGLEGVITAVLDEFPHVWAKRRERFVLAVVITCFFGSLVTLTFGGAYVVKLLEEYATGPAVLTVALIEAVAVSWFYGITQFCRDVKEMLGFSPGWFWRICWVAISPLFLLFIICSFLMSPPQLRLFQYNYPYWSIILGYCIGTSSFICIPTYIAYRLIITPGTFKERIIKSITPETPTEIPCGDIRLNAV
Method notes: SERT assay (Compounds of Formula II), transporter uptake assay kit
Type: cell-based
One number for each entry, in %.

{"columns": ["Compound", "inhibition at 3 µM [%]"],
 "data": [
  ["COc1ccc([C@@]23CC[C@@H](OC(=O)c4ccc[nH]4)C[C@@H]2N(C)CC3)cc1OC [Compound 53]", 98],
  ["CCC(=O)O[C@@H]1C=C[C@@]2(c3ccc(OC)c(OC)c3)CCN(C)[C@H]2C1 [Compound 58]", 98],
  ["COc1ccc([C@@]23C=C[C@@H](OC(=O)CN)C[C@@H]2N(C)CC3)cc1OC [Compound 56]", 99],
  ["COc1ccc([C@@]23CC[C@@H](OC(=O)CCCC(=O)O)C[C@@H]2N(C)CC3)cc1OC [Compound 47]", 94]
]}

Go through the items and report each one's inhibition at 3 µM.
1. COc1ccc([C@@]23CC[C@@H](OC(=O)CCC(=O)O)C[C@@H]2N(C)CC3)cc1OC [Compound 46]
2. CCC(=O)O[C@@H]1CC[C@@]2(c3ccc(OC)c(OC)c3)CCN(C)[C@H]2C1 [Compound 50]

Result ::
94
98

Go through the items and report each one's inhibition at 3 µM.
1. COc1ccc([C@@]23C=C[C@@H](OC(=O)c4ccccc4)C[C@@H]2N(C)CC3)cc1OC [Compound 60]
2. COc1ccc([C@@]23CC[C@@H](OC(=O)C(C)N)C[C@@H]2N(C)CC3)cc1OC (some centres unmarked) [Compound 49]

Result ::
95
97
